Source listed as patent US20210130436A1.

The following binders are shown together with reported MFI at 100 nM values.
Test Target: T1, CD226 (UniProt Q15762 19-336)
T1 construct: whole, on cells
T1 sequence (looked up): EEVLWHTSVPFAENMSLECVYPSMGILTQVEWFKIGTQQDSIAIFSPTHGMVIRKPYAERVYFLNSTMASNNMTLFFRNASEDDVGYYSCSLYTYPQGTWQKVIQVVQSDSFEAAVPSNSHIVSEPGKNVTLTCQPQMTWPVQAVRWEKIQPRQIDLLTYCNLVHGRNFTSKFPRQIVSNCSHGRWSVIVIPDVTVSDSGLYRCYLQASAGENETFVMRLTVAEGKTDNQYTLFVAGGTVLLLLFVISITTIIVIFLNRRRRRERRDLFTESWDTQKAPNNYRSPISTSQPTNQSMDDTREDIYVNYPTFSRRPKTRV
Experiment Summary: flow cytometry on cells expressing CD226, Fc fusion at 100 nM
Response body: numeric value in MFI, unit text excluded.

Known MFI at 100 nM results, listed for orientation:
Binder	MFI at 100 nM / MFI
CD155 S52L/L104E variant IgV-Fc fusion (Fc fusion, not shown: a dimerising Fc or GST) WPPPGTGDVVVQAPTQVPGFLGDSVTLPCYLQVPNMEVTHVSQLTWARHGELGSMAVFHQTQGPSYSESKRLEFVAARLGAELRNASLRMFGLRVEDEGNYTCEFVTFPQGSRSVDIWLRVL	2210
CD155 T45Q/S52R/G111R variant IgV-Fc fusion (Fc fusion, not shown: a dimerising Fc or GST) WPPPGTGDVVVQAPTQVPGFLGDSVTLPCYLQVPNMEVTHVSQLQWARHGERGSMAVFHQTQGPSYSESKRLEFVAARLGAELRNASLRMFGLRVEDEGNYTCLFVTFPQRSRSVDIWLRVL	2080

Next binder, please.
Query :: Give me measured MFI at 100 nM, please, for this binder: CD155 S42L variant IgV-Fc fusion (Fc fusion, not shown: a dimerising Fc or GST) WPPPGTGDVVVQAPTQVPGFLGDSVTLPCYLQVPNMEVTHVLQLTWARHGESGSMAVFHQTQGPSYSESKRLEFVAARLGAELRNASLRMFGLRVEDEGNYTCLFVTFPQGSRSVDIWLRVL
Result :: 2190
